# tested target: EZH2 (rPRC2) (Homo sapiens, UniProt Q15910)
# Sequence (Q15910 whole entry): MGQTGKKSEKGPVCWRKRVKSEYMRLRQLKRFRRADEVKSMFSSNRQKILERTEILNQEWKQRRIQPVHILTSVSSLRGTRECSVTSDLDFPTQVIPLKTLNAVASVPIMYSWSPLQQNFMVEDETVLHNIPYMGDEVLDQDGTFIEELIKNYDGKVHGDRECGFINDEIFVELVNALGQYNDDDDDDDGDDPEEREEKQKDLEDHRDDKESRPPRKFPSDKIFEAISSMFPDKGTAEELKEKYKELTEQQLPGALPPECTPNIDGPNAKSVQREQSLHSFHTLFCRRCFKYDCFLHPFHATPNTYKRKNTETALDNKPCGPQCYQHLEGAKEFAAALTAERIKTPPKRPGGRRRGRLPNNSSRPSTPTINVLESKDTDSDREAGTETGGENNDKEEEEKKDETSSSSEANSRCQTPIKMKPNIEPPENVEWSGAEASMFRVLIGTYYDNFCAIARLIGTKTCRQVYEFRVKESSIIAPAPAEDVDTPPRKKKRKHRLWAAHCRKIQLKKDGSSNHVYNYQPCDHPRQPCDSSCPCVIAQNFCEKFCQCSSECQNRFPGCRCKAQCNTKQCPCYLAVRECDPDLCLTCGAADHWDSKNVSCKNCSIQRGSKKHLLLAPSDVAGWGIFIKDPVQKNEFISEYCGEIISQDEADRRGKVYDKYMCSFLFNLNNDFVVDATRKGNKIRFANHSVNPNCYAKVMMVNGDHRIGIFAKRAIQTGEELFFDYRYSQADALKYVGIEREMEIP
# Sequence (O75530 whole entry partner): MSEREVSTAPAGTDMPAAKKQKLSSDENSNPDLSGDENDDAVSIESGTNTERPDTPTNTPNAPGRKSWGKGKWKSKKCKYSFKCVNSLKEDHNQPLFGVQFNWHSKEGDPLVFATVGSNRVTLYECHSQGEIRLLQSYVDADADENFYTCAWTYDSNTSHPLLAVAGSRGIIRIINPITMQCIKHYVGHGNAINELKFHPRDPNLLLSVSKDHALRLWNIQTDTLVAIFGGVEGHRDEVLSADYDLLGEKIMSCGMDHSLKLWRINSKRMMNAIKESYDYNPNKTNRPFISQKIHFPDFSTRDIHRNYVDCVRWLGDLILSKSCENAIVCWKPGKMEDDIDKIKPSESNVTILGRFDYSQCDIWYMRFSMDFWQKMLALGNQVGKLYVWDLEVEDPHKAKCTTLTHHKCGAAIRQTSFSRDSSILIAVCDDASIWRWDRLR
# Sequence (Q15022 whole entry partner): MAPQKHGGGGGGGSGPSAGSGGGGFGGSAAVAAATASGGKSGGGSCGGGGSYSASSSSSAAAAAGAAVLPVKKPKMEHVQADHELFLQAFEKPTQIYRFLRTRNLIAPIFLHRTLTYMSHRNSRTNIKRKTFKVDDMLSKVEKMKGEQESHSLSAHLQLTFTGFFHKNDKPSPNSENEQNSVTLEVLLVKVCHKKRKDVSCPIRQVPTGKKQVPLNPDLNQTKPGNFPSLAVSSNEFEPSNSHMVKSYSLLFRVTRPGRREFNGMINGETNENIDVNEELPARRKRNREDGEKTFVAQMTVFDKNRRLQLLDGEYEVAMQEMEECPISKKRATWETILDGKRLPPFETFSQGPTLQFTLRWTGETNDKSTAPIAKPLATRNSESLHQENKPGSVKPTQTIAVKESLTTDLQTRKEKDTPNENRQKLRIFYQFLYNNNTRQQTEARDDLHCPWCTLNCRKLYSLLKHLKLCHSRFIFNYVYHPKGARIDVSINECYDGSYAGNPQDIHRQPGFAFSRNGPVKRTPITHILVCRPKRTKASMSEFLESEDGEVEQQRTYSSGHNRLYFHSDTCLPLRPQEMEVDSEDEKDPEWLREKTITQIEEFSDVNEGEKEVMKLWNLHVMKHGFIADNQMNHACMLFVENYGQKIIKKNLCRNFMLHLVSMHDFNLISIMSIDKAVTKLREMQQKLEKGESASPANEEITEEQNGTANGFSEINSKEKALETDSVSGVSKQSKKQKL
# assay: EZH2 assay: rPRC2, biotinylated oligonucleosomes, 3H SAM methyl transfer (FlashPlate scintillation)
# Assay type: biochemical
# condition: EZH2 IC50, wild-type EZH2 (rPRC2), biotinylated oligonucleosome substrate
experimental readout: IC50

Specify measured IC50 for CCOC(C)C(C)n1c(C)c(C(=O)NCc2c(OC)cc(C)[nH]c2=O)c2ccccc21 (racemic) [Compound 290] . < 0.1 µM

Specify measured IC50 for COc1cc(C)[nH]c(=O)c1CNC(=O)c1c(C)n(C(C)C2(C)COC2)c2ccccc12 (racemic) [Compound 291] . < 0.1 µM

Specify measured IC50 for COc1cc(C)[nH]c(=O)c1CNC(=O)c1c(C)n(C(C)CS(C)(=O)=O)c2ccccc12 (single isomer, unassigned) [Compound 278] . 0.1 to 1 µM

Specify measured IC50 for Cc1cc(C)c(CNC(=O)c2c(C)n([C@H](C)c3ccccc3)c3nc(N)ncc23)c(O)n1 [Compound 144] . < 0.1 µM

Specify measured IC50 for COc1cc(C)[nH]c(=O)c1CNC(=O)c1c(C)n(C(C)C(OC)C(F)(F)F)c2ncccc12 (stereo not shown) [Compound 312] . 0.1 to 1 µM

Specify measured IC50 for COc1cc(C)[nH]c(=O)c1CNC(=O)c1c(C)n(C(C)C(C)S(C)(=O)=O)c2ccccc12 (stereo not shown) [Compound 350] . < 0.1 µM

Specify measured IC50 for CCC(OC)C(C)n1c(C)c(C(=O)NCc2c(C)cc(C)[nH]c2=O)c2ccccc21 (racemic) [Compound 275] . < 0.1 µM
